Data provenance: patent US10287301B2

- Tested Target: Human Factor D (Homo sapiens (Human), UniProt P00746)
- Sequence (P00746 26-253): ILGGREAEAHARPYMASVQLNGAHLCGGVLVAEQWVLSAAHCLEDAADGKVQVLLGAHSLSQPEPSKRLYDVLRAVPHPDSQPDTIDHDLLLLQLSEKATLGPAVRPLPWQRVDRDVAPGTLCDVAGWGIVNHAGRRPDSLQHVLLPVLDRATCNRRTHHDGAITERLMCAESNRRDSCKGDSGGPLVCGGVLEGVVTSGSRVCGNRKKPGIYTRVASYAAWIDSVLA
- Assay: Human Factor D Assay
- Assay type: biochemical
- Condition Parameters: Human Factor D assay of Example 8; Table 2; read-out: IC50
Metric: IC50

1) CC(=O)c1cn(CC(=O)N2C[C@H](F)C[C@H]2C(=O)Nc2cccc(Br)n2)c2ccc(-c3cnc4nccn4c3)cc12 [Compound 222]    < 1000 nM
2) CC(=O)c1cn(CC(=O)N2C[C@H](F)C[C@H]2C(=O)Nc2cccc(C(F)(F)F)n2)c2ccc(-c3cnc4cc(C)nn4c3)cc12 [Compound 301]    < 1000 nM
3) CC(=O)c1nn(CC(=O)N2CCS[C@H]2C(=O)Nc2cccc(Br)n2)c2ccc(-c3cnc(C)nc3)cc12 [Compound 308]    < 1000 nM
4) CC(=O)c1cn(CC(=O)N2C[C@H](F)C[C@H]2C(=O)Nc2cccnc2O)c2ccc(-c3ccnnc3)cc12 [Compound 197]    > 10000 nM

Record CC(=O)c1cn(CC(=O)N2C[C@H](F)C[C@H]2C(=O)Nc2cccc(-c3ccccc3Cl)c2F)c2ccc(-c3cnc(C)c(Cl)c3)cc12 [Compound 207] ; system Human Factor D (Homo sapiens (Human), UniProt P00746); IC50 = < 1000 nM

Record CC(=O)c1nn(CC(=O)N2C[C@H](F)C[C@H]2C(=O)Nc2cccc(Br)n2)c2ccc(-c3cnc4nc(C)ccn34)cc12 [Compound 321] ; system Human Factor D (Homo sapiens (Human), UniProt P00746); IC50 = < 1000 nM

* * *

The entries below come with measured pIC50 values attached.
- Tested Target: Human Factor D (Homo sapiens (Human))
- Assay: Human Factor D Assay
- Type: biochemical
- Condition Parameters: Human Factor D assay of Example 8; Table 2; read-out: IC50
pIC50: −log10 of the molar value.

Look over these answered cases.
1. CC(=O)c1nn(CC(=O)N2C[C@H](F)C[C@H]2C(=O)Nc2cccc(OC(F)F)c2F)c2ccc(-c3cnc4ccnn4c3)cc12    > 6.00
2. CC(=O)c1cn(CC(=O)N2C[C@H](F)C[C@H]2C(=O)Nc2cccc(-c3ccccc3Cl)c2F)c2ccc(-c3cnc(NCC(F)(F)F)nc3)cc12    > 6.00
3. CC(=O)c1nn(CC(=O)N2C[C@H](F)C[C@H]2C(=O)Nc2cccc(-c3sccc3Cl)c2F)c2ccc(-c3cnc(C)nc3)cc12    > 6.00
4. CC(=O)c1nn(CC(=O)N2C[C@H](O)C[C@H]2C(=O)Nc2cccc(Br)n2)c2ccc(-c3cnc(C)nc3)cc12    > 6.00
5. CC(=O)c1nn(CC(=O)N2CC=C[C@H]2C(=O)Nc2cccc(-c3ccccc3Cl)c2F)c2ccc(-c3cnc(C)nc3)cc12    > 6.00

Now for the molecule whose pIC50 we want.
get_value(item= CC(=O)c1nn(CC(=O)N2C[C@H](F)C[C@H]2C(=O)Nc2cccc(Br)n2)c2ccc(-c3cnc4cc(C(=O)O)nn4c3)cc12 , readout=pIC50) returns > 6.00

* * *

- Tested Target: Human Factor D (Homo sapiens (Human), UniProt P00746)
- Assay: Human Factor D Assay
- Assay type: biochemical
- Condition Parameters: Human Factor D, Table 3; read-out: IC50
pIC50: −log10 of the molar value.
The entries below come with measured pIC50 values attached.

1. CC(=O)c1nn(CC(=O)N2C[C@H](F)C[C@H]2C(=O)Nc2cccc(Br)n2)c2cnc(-c3cnc(C)nc3)cc12    > 6.00
2. CC(=O)c1nn(CC(=O)N2[C@@H]3C[C@@H]3C[C@H]2C(=O)NC/C(F)=C(\C)c2ccccc2)c2ccc(-c3cnc(C)nc3)cc12    > 6.00
3. CC(=O)c1nn(CC(=O)N2C[C@H](F)C[C@H]2C(=O)Nc2cncc(Br)n2)c2ccc(-c3cnc4cc(C5CC5)nn4c3)cc12    > 6.00
4. CC(=O)c1nn(CC(=O)N2C[C@H](F)C[C@H]2C(=O)Nc2nc(Br)ccc2C(=O)O)c2ccc(-c3cnc(C)nc3)cc12    > 6.00
5. CC(=O)c1nn(CC(=O)N2[C@@H]3C[C@@H]3C[C@H]2C(=O)Nc2nc(Br)ccc2C2CC2)c2ccc(-c3cnc(C)nc3)cc12    > 6.00

Now for the compound whose pIC50 we want.
get_value(item= Cc1cccc(NC(=O)[C@@H]2C[C@@H](F)CN2C(=O)Cn2nc(C(N)=O)c3sc(-c4cnc(C)nc4)nc32)n1 , readout=pIC50) returns < 5.00

* * *

- Tested Target: Human Factor D (Homo sapiens (Human))
- Assay: Human Factor D Assay
- Assay type: biochemical
- Condition Parameters: Human Factor D, Table 3; read-out: IC50
Metric: IC50

Record CC(=O)c1nn(CC(=O)N2CC[C@H]2C(=O)Nc2cccc(C)n2)c2ccc(-c3cccnc3)cc12 [Compound 548] ; system Human Factor D (Homo sapiens (Human)); IC50 = > 10000 nM

* * *

- Tested Target: Human Factor D (Homo sapiens (Human), UniProt P00746)
- Assay: Human Factor D Assay
- Format: biochemical
- Condition Parameters: Human Factor D assay of Example 8; Table 2; read-out: IC50
The entries below come with measured IC50 values attached.

1. CSc1cccc(NC(=O)[C@@H]2C[C@@H](F)CN2C(=O)Cn2nc(C(C)=O)c3cc(-c4cnc(C)nc4)ccc32)n1 [Compound 246]    < 1000 nM
2. CC(=O)n1cc(NC(=O)N2C[C@H](F)C[C@H]2C(=O)Nc2cccc(-c3ccccc3Cl)c2F)c2ccc(-c3cnc(C)nc3)cc21 [Compound 293]    < 1000 nM
3. CC(=O)c1nn(CC(=O)N2CC=C[C@H]2C(=O)Nc2cccc(Br)n2)c2ccc(-c3cnc(C)nc3)cc12 [Compound 294]    < 1000 nM
4. CC(=O)c1cn(CC(=O)N2[C@@H]3C[C@@H]3C[C@H]2C(=O)Nc2cncc(Br)n2)c2ccc(-c3cnc4cc(C)nn4c3)cc12 [Compound 331]    < 1000 nM
5. CC(=O)c1cn(CC(=O)N2C[C@H](F)C[C@H]2C(=O)Nc2cccc(Br)n2)c2ccc(-c3cnc(C4CC4)nc3)cc12 [Compound 216]    < 1000 nM

Now for the molecule whose IC50 we want.
Record CC(=O)c1nn(CC(=O)N2C[C@H](F)C[C@H]2C(=O)Nc2cncc(Br)n2)c2ccc(-c3ccc4nc(C)nn4c3)cc12 [Compound 325] ; system Human Factor D (Homo sapiens (Human), UniProt P00746); IC50 = < 1000 nM

* * *

- Tested Target: UniProt:P00746
- Assay: Human Factor D Assay
- Assay type: biochemical
- Condition Parameters: Human Factor D 80 nM, substrate Z-L-Lys-SBzl; read-out: IC50
The entries below come with measured IC50 values attached.

Look over these answered cases.
1) NC(=O)c1nn(CC(=O)N2C[C@H](F)C[C@H]2C(=O)Nc2cccc3c2CN(c2ccccn2)C3)c2ccc(-c3ccnnc3)cc12    > 10000 nM
2) CC(=O)c1cn(CC(=O)N2C[C@H](F)C[C@H]2C(=O)Nc2ccc(O)cn2)c2ccc(-c3ccnnc3)cc12    > 10000 nM
3) CC(=O)c1cn(CC(=O)N2C[C@H](F)C[C@H]2C(=O)Nc2nc(-c3ccccc3Cl)ns2)c2ccc(-c3ccnnc3)cc12    < 1000 nM
4) CC1Oc2cccc(NC(=O)[C@@H]3C[C@@H](F)CN3C(=O)Cn3nc(C(N)=O)c4cc(-c5ccnnc5)ccc43)c2NC1=O (stereo partly shown)    > 10000 nM
5) NC(=O)c1nn(CC(=O)N2C[C@H](F)C[C@H]2C(=O)Nc2cc(=O)[nH]n2C2CCCCC2)c2ccc(-c3ccnnc3)cc12    > 10000 nM
6) NC(=O)c1nn(CC(=O)N2C[C@H](F)C[C@H]2C(=O)N[C@@H]2CCC[C@H]2O)c2ccc(-c3ccnnc3)cc12    > 10000 nM
7) CC(=O)c1cn(CC(=O)N2C[C@H](F)C[C@H]2C(=O)Nc2nccc(Cl)n2)c2ccc(-c3ccnnc3)cc12    > 10000 nM
8) NC(=O)c1nn(CC(=O)N2[C@@H]3C[C@@H]3C[C@H]2C(=O)Nc2cccc(-c3ccccc3Cl)c2F)c2ccc(-c3cncnc3)cc12    < 1000 nM
9) NC(=O)c1nn(CC(=O)N2C[C@H](F)C[C@H]2C(=O)Nc2cncc(Br)n2)c2ccc(-c3ccnnc3)cc12    < 1000 nM
10) Cc1ncc(-c2ccc3c(c2)c(C(N)=O)nn3CC(=O)N2C[C@H](F)C[C@H]2C(=O)Nc2cccc(-c3ccccc3Cl)c2F)cn1    < 1000 nM

Record NC(=O)c1nn(CC(=O)N2C[C@H](F)C[C@H]2C(=O)Nc2cccc(Br)n2)c2ccc(-c3ccc(N4CCOCC4)cc3)cc12 ; system UniProt:P00746; IC50 = < 1000 nM

Record CC(=O)c1cn(CC(=O)N2C[C@H](F)C[C@H]2C(=O)Nc2cccc(-c3ccccc3Cl)c2F)c2ccc(-c3cnnc(C)c3)cc12 ; system UniProt:P00746; IC50 = < 1000 nM

Record NCc1ccc(NC(=O)[C@@H]2C[C@@H](F)CN2C(=O)Cn2nc(C(N)=O)c3cc(-c4ccnnc4)ccc32)cc1 ; system UniProt:P00746; IC50 = > 10000 nM

Record NC(=O)c1nn(CC(=O)N2C[C@H](F)C[C@H]2C(=O)Nc2cncc(Cl)n2)c2ccc(-c3ccnnc3)cc12 ; system UniProt:P00746; IC50 = < 1000 nM

Record CC(=O)c1cn(CC(=O)N2C[C@H](F)C[C@H]2C(=O)Nc2cccc(-c3ccccc3Cl)c2F)c2ccc(C3=CCN(C(C)=O)CC3)cc12 ; system UniProt:P00746; IC50 = < 1000 nM

Record CC(=O)c1cn(CC(=O)N2C[C@H](F)C[C@H]2C(=O)NCc2ccccn2)c2ccc(-c3ccnnc3)cc12 ; system UniProt:P00746; IC50 = < 1000 nM

Record CC(=O)c1cn(CC(=O)N2C[C@H](F)C[C@H]2C(=O)Nc2cccc(Br)n2)c2ccc(-c3ccccc3Cl)cc12 ; system UniProt:P00746; IC50 = < 1000 nM

Record CC(=O)c1cn(CC(=O)N2C[C@H](F)C[C@H]2C(=O)Nc2cncc(Br)n2)c2ccc(-c3ccnnc3)cc12 ; system UniProt:P00746; IC50 = < 1000 nM

Record NC(=O)c1nn(CC(=O)N2C[C@H](F)C[C@H]2C(=O)Nc2ccccc2N2CCOC2=O)c2ccc(-c3ccnnc3)cc12 ; system UniProt:P00746; IC50 = > 10000 nM

Record COc1ncc(-c2ccc3c(c2)c(C(N)=O)nn3CC(=O)N2C[C@H](F)C[C@H]2C(=O)Nc2cccc(Cl)n2)cn1 ; system UniProt:P00746; IC50 = < 1000 nM

Record CC(=O)c1cn(CC(=O)N2C[C@H](F)C[C@H]2C(=O)Nc2ccc(CN)cc2)c2ccc(-c3ccnnc3)cc12 ; system UniProt:P00746; IC50 = > 10000 nM
